experiment: Selectivity index, ratio of IC50 for rat L6 cells to IC50 for Leishmania donovani MHOM/SD/62/ISCL2D axenic amastigotes; format: toxicity; details: read-out: Ratio IC50
ENDPOINT_LABEL: selectivity ratio
Write the value as a bare number.

Please review the entries below; each comes with its answer.
{"CHEM_SMILES": "CC(=O)O[C@@H]1[C@H](OC(C)=O)[C@@H](CI)O[C@H]1n1cnc2c(N)nc(Cl)nc21", "ENDPOINT_LABEL": "selectivity ratio", "REPORTED": 6}
{"CHEM_SMILES": "CC(=O)O[C@@H]1[C@H](OC(C)=O)[C@@H](CI)O[C@H]1n1cnc2c(N)nc(F)nc21", "ENDPOINT_LABEL": "selectivity ratio", "REPORTED": 0.7}
{"CHEM_SMILES": "CSC[C@H]1O[C@@H](n2cnc3c(N)nc(C#N)nc32)[C@H](O)[C@@H]1O", "ENDPOINT_LABEL": "selectivity ratio", "REPORTED": 0.6}
{"CHEM_SMILES": "C[C@H]1O[C@@H](n2cnc3c(N)nc(NN)nc32)[C@H](O)[C@@H]1O", "ENDPOINT_LABEL": "selectivity ratio", "REPORTED": 3}

// moving on: another record for selectivity ratio
Fill in the blank: the reported selectivity ratio of CNc1nc(C#N)nc2c1ncn2[C@@H]1O[C@H](C)[C@@H](O)[C@H]1O is ____.
0.6

Where do the numbers come from? From ChEMBL document CHEMBL3997846.
